# TEST SUMMARY: Plasma pharmacokinetics
# Assay type: in vivo, human
# DETAILS: human, plasma, oral, Mean AUC24, cycle 1 day 15; QD dosing
MEASURED ENDPOINT: AUC

Given CC(C)n1nc(-c2ccc3oc(N)nc3c2)c2c(N)ncnc21 , respond with its AUC.
237 to 366 ng·h/mL

----------
# TEST SUMMARY: Plasma pharmacokinetics
# Format: in vivo, human
# DETAILS: human, plasma, oral, Mean plasma elimination half-life, cycle 1 day 15; across all QD doses
MEASURED ENDPOINT: half-life

Supply reported half-life belonging to this compound: CC(C)n1nc(-c2ccc3oc(N)nc3c2)c2c(N)ncnc21 [sapanisertib]
5.24 to 9.2 h
